biological target: T1, MMP-26 (human); assay: cell-based or functional assay
T1 sequence: ASDF
// values below are reported % Inhibition of JEG-3 cell invasion, 1 µg/ml (further test)
Form entry: value (%) — number only.

# binder, reported
data = [
    ("C08 (antibody, human IgG4, V domains shown) VH: EVQLLESGGGLVQPGGSLRLSCAASGFTFSYYEMMWVRQAPGKGLEWVSSISPSGGPTMYADSVKGRFTISRDNSKNTLYLQMNSLRAEDTGVYYCARKMGRVGYCSSTSCYRDDYYGMDVWGQGTTVTVSS VL: DIQMTQSPPSLSALVGDRVTITCRASQSISRYVNWYQQKPGKAPKVLIYAASIVENGVPSRFSGSGSGTDFSLTISSLQPEDFATYYCQQTYSTPLTFGGGTKLAIKR", 34),
    ("C04 (antibody, human IgG4, V domains shown) VH: EVQLLESGGGLVQPGGSLRLSCAASGFTFSMYFMVWVRQAPGKGLEWVSWIGSSGGETPYADSVKGRFTISRDNSKNTLYLQMNSLRAEDTAVYYCARGYSSGWYVMGDYWGQGTLVTVSS VL: QSALTQPPSASGTPGQRVTISCSGTSSNIGSHYVFWYQQLPGTAPKLLIHRNDERPSGVPDRFSGSKSGTSASLAISGLQSEDEADYYCATWDDNLNGPVFGGGTKLT", 1),
]

Form: binder = C01 (antibody, human IgG4, V domains shown) VH: EVQLLESGGGLVQPGGSLRLSCAASGFTFSNYGMSWVRQAPGKGLEWVSVIGPSGGITMYADSVKGRFTISRDNSKNTLYLQMNSLRAEDTAVYYCATGSSSGWYPNFDYWGQGTLVTVSS VL: DIQMTQSPSTLSASVGDRVTITCRASQSIGNWLAWYQQKPGEAPHLLIYQASSLEGGVPSRFSGSGSGTKFTLNISSLQPDDFATYYCQQYNSYSYTFGQGTKLDIKR ; % Inhibition of JEG-3 cell invasion, 1 µg/ml (further test) = -2
